// values below are reported self-aminoacylation
- Test system: biotinyl-Phe-oxazolone
- METHOD DESCRIPTION: self-aminoacylation, catalytic enhancement (BFO) (fold over background); higher = more active; k-Seq, kA / k0A0; sequences stand for … in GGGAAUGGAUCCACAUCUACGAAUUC…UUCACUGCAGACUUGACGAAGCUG
Fewer inactive variants are shown than the library holds.
ASSAY ENDPOINT: self-aminoacylation

CHAIN SEQUENCE: AGGUUUGCUAAUAGUAGCAAG [Fam3.1 aminoacylation ribozyme variant]
ASSAY ENDPOINT: self-aminoacylation
MEAS VALUE: 1.05

CHAIN SEQUENCE: AACUUUGAUAAUAGUCGCAAG [Fam3.1 aminoacylation ribozyme variant]
ASSAY ENDPOINT: self-aminoacylation
MEAS VALUE: 2.61

CHAIN SEQUENCE: UUUACCCUGGUCAUCAAGUGA [Fam2.1 aminoacylation ribozyme variant]
ASSAY ENDPOINT: self-aminoacylation
MEAS VALUE: 3.22

CHAIN SEQUENCE: CUAAUUCAUACAAUCGGUCUG [Fam1A.1 aminoacylation ribozyme variant]
ASSAY ENDPOINT: self-aminoacylation
MEAS VALUE: 0.621

CHAIN SEQUENCE: AUUCCCCGGGUCAUCGAGUGA [Fam2.1 aminoacylation ribozyme variant]
ASSAY ENDPOINT: self-aminoacylation
MEAS VALUE: 30

CHAIN SEQUENCE: AUUGCCCCGGUCAUCGAGUGA [Fam2.1 aminoacylation ribozyme variant]
ASSAY ENDPOINT: self-aminoacylation
MEAS VALUE: 37.5

CHAIN SEQUENCE: AUUACCCUGGUCAGCGUGUGA [Fam2.1 aminoacylation ribozyme variant]
ASSAY ENDPOINT: self-aminoacylation
MEAS VALUE: 30.9

CHAIN SEQUENCE: AUUUACCUAGGUCAUCUGGUG [Fam2.2 aminoacylation ribozyme variant]
ASSAY ENDPOINT: self-aminoacylation
MEAS VALUE: 16.8

CHAIN SEQUENCE: CCACACUUCAAGCCAUCGGUA [Fam1B.1 aminoacylation ribozyme variant]
ASSAY ENDPOINT: self-aminoacylation
MEAS VALUE: 0.774

###

- Tested on: biotinyl-Met-oxazolone
- METHOD DESCRIPTION: self-aminoacylation, catalytic enhancement (BMO) (fold over background); higher = more active; k-Seq, kA / k0A0; sequences stand for … in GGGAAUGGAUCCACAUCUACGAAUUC…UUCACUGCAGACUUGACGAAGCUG
Fewer inactive variants are shown than the library holds.

CHAIN SEQUENCE: CUUACCCUGGUCAUCGAUUGA [Fam2.1 aminoacylation ribozyme variant]
self-aminoacylation: 0.863
//
CHAIN SEQUENCE: CCGCACUUAAAGCAAUCGGUC [Fam1B.1 aminoacylation ribozyme variant]
self-aminoacylation: 1.1
//
CHAIN SEQUENCE: AAAUUUGCGAAUAGUCGCAAG [Fam3.1 aminoacylation ribozyme variant]
self-aminoacylation: 1.59
//
CHAIN SEQUENCE: CCUCACUUCAAGCAAUCGGUG [Fam1B.1 aminoacylation ribozyme variant]
self-aminoacylation: 6.58
//
CHAIN SEQUENCE: UAUACCCUGGUCAUCGAGUGA [Fam2.1 aminoacylation ribozyme variant]
self-aminoacylation: 14.8
//
CHAIN SEQUENCE: AUUACCGUGGUGAUCGAGUGA [Fam2.1 aminoacylation ribozyme variant]
self-aminoacylation: 3.87
//
CHAIN SEQUENCE: CAAUACUUCAAGCAAUCGGUC [Fam1B.1 aminoacylation ribozyme variant]
self-aminoacylation: 0.799
//
CHAIN SEQUENCE: CUACCUCAAACAAUCGGUCGG [Fam1A.1 aminoacylation ribozyme variant]
self-aminoacylation: 1.5
//
CHAIN SEQUENCE: AUUACCCUGGUCCUCGAGUGU [Fam2.1 aminoacylation ribozyme variant]
self-aminoacylation: 2.78
//
CHAIN SEQUENCE: AUUGACCUAGGUCAUAGGGUG [Fam2.2 aminoacylation ribozyme variant]
self-aminoacylation: 1.27
//
CHAIN SEQUENCE: CUACACUUCCAGCAAUCGGUC [Fam1B.1 aminoacylation ribozyme variant]
self-aminoacylation: 0.787
//
CHAIN SEQUENCE: CUACUUCAUACAAUCGGUCCG [Fam1A.1 aminoacylation ribozyme variant]
self-aminoacylation: 0.76
//
CHAIN SEQUENCE: AUUAACCUAGGUCAUCCGGUG [Fam2.2 aminoacylation ribozyme variant]
self-aminoacylation: 5.02
//
CHAIN SEQUENCE: AACUUUGCUAAUGGUCGCAAG [Fam3.1 aminoacylation ribozyme variant]
self-aminoacylation: 2.44
//
CHAIN SEQUENCE: AUUACUCUGGUCCUCGAGUGA [Fam2.1 aminoacylation ribozyme variant]
self-aminoacylation: 3.62
//
CHAIN SEQUENCE: CUACUUCAAGCGAUCGGUCUG [Fam1A.1 aminoacylation ribozyme variant]
self-aminoacylation: 0.769
//
CHAIN SEQUENCE: AUUACCGUGGUCAUCGAGUUA [Fam2.1 aminoacylation ribozyme variant]
self-aminoacylation: 0.946
//
CHAIN SEQUENCE: AUUCACCAAGGUGAUCGGGUG [Fam2.2 aminoacylation ribozyme variant]
self-aminoacylation: 3.28
